Assay system: anti-CD28 Fab
Sequence (VH, as listed by the source, chain 1 of 2): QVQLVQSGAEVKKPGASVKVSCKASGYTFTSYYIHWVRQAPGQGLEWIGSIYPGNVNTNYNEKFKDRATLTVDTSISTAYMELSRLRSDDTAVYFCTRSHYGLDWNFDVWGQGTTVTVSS
Sequence (VL, as listed by the source, chain 2 of 2): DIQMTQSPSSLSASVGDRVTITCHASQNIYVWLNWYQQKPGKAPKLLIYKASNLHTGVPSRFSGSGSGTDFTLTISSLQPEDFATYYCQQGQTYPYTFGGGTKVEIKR
Test: competition ELISA: peptide titrated (0-100 µM) with 1 nM anti-CD28 Fab, binding to plate-bound CD28
Where no end group is shown, it is not given here.
Observable: IC50 (µM)

{"columns": ["Binder", "Readout units", "Quantitative readout"],
 "data": [
  ["YCAGHAWQYINKCA (Alanine scan variant of Peptide-87 (L14A)) [Peptide-116]", "µM", 98.6],
  ["YCAGHAWQYANKCL (Alanine scan variant of Peptide-87 (I10A)) [Peptide-113]", "µM", 102],
  ["YCAGHAWQYINKCL (not fully specified; cysteine pairing not given here; also: biotinylated, site not given here) [Peptide-87]", "µM", 12.6],
  ["YCAGHAAQYINKCL (Alanine scan variant of Peptide-87 (W7A)) [Peptide-110]", "µM", 3.16],
  ["YCAGHAWAYINKCL (Alanine scan variant of Peptide-87 (Q8A)) [Peptide-111]", "µM", 12.3],
  ["YCAGHAWQYIAKCL (Alanine scan variant of Peptide-87 (N11A)) [Peptide-114]", "µM", 5.49]
]}
